# system.name: MMP-9 (Homo sapiens)
# Construct: purchased Biomol
# Sequence (P14780 107-444 limits assumed): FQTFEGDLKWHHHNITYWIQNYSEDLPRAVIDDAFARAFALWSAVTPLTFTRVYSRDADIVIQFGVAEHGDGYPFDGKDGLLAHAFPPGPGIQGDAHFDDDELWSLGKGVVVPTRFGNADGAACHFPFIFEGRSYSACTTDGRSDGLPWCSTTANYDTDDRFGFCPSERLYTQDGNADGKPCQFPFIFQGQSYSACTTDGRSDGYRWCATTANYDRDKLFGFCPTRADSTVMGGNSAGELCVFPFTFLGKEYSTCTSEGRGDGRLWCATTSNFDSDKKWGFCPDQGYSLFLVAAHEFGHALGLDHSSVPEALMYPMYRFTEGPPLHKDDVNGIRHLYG
# assay.notes: In vitro specific inhibition of MMP-9 activity (Biomol assay kit)
# Format: biochemical
# run.parameters: summary of Tables 2 and 4
measurement.type: in vitro MMP-9 inhibition activity, in words

compound: COc1cc2ccc(=O)oc2cc1O
recorded.value: strong
--
compound: O=C(O)c1ccc(O)cc1 [p-hydroxy-benzoic acid]
recorded.value: not
--
compound: O=c1c(O)c(-c2ccc(O)c(O)c2)oc2cc(O)cc(O)c12
recorded.value: strong
--
compound: COc1cc2ccc(=O)oc2cc1OC
recorded.value: strong
--
compound: COc1cc(/C=C/C(=O)O)ccc1O
recorded.value: strong
